System: HSV-2
Assay: Plaque reduction assay, HSV-2 clinical isolates on Vero cells
Type: cell-based
Conditions: Human alphaherpesvirus 2, Vero, read-out: Drug susceptibility Aciclovir (ACV), isolate HPG030, HSV-2 TK Q90stop (268C>T)
reported_metric: IC50

Prompt: Suppose we examine the molecule Nc1nc2c(ncn2COCCO)c(=O)[nH]1 [Aciclovir, acyclovir] ; what IC50 value has been reported?
Response: > 40 µM

----------
Test system: HSV-1
Experiment: Plaque reduction assay, HSV-1 clinical isolates on Vero cells
Format: cell-based
Conditions: Human alphaherpesvirus 1, Vero, isolate HPG045, HSV-1 pol L419I (1255C>A); also TK L49R, pol A1169T; read-out: Drug susceptibility Penciclovir (PCV)
pIC50: −log10 of the molar value.
reported_metric: pIC50

Prompt: Param item = Nc1nc2c(ncn2CCC(CO)CO)c(=O)[nH]1 ; retrieve measured pIC50.
Response: < 4.40
